Give TGI for every item shown.
- Test system: EKVX NSCLC
- Experimental Details: NCI tumour cell line growth inhibition, 48 h

Any idea what its TGI is? The compound is Cc1cc(C)c2c(=N)c3ccccc3n(CCCCCCO)c2n1 6.33 µM

Same question, CCCCc1c2c(nc3c1CCc1cc4cc5c(nc4nc1-3)-c1nc3c(c(CCCC)c1CC5)CCC/C3=C\c1ccccc1)/C(=C/c1ccccc1)CCC2 this time > 100 µM

Same question, COc1ccc(/C(=N/Nc2nc3ccccc3[nH]2)C(=O)O)cc1 this time > 100 µM

Same question, COCCOCOC(C)(C)[C@H](CCOC(C)=O)O[Si](c1ccccc1)(c1ccccc1)C(C)(C)C this time > 100 µM

Same question, C=C1C(=O)O[C@H]2[C@H]1CC/C(CNC(=O)/C=C/c1ccccc1)=C\CC[C@@]1(C)O[C@@H]21 this time 4.51 µM

Same question, N#Cc1c(Nc2nc3ccccc3s2)c2ccccc2n2c1nc1ccccc12 this time > 100 µM

Same question, CC(C)C(C/C=C1/CC(CO)(COC(=O)C2CCCCC2)OC1=O)C(C)C (centres undefined) this time 42.8 µM

Same question, CC(=O)c1ccc(N2CCN(C3=CC(=O)c4c(O)ccc(O)c4C3=O)CC2)cc1 this time > 100 µM

Same question, CC(=O)Nc1ccc(C(=O)N2N=C(C)/C(=C/c3cccc([N+](=O)[O-])c3)C2=O)cc1 this time > 100 µM
